# target of assay: UniProt Q9Y5Z0
# Sequence (Q9Y5Z0 63-518 limits assumed): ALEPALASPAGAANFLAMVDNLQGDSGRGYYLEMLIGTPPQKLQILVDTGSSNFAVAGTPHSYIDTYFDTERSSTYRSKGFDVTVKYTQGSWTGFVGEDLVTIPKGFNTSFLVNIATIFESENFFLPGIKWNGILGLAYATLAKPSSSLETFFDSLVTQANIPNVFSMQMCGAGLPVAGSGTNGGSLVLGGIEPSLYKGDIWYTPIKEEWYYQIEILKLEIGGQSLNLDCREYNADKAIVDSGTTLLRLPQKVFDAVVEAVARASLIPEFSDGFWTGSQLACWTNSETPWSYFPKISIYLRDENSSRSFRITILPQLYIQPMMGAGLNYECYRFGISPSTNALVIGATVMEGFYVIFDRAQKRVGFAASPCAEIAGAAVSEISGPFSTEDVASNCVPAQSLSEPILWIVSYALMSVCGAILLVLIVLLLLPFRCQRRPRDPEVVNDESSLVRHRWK

compound: CN=S1(=O)C[C@@](C)(c2cc(NC(=O)c3ccc(Cl)cn3)ccc2F)NC(=N)[C@@]1(C)c1ccc(F)cc1 (stereo partly shown) [Example 10a]
output unit: nM
Ki: 106
